Exercise: state measured IC50 for each of the compounds provided.
# Measured On: human ACC2 (Homo sapiens (Human))
# Experimental Protocol: ACC2 assay (spectrophotometric 384 well assay, NADH-linked kinetic method)
# Type: biochemical
# Condition Notes: hACC2 construct lacking 128 N-terminal amino acids; coupled lactate dehydrogenase/pyruvate kinase reaction, 340 nm, 25° C.
Express your answer in nM, writing the number without its unit.

# IC50 lookup, item CC(=O)N[C@@H](C)c1ccc(O[C@@H]2CCN(c3ncc(OCC4CC4)cn3)C2)cc1
1080

# iterate: [2H]C([2H])([2H])N(c1ncc(F)c(N2CC[C@@H](Oc3ccc([C@H](C)NC(C)=O)cc3)C2)n1)C([2H])([2H])[2H]
80

# iterate: COC[C@@H](C)N(C)c1ncc(Cl)c(N2CC[C@@H](Oc3ccc([C@H](C)NC(C)=O)cc3)C2)n1
199

# iterate: COc1ccc(N(C)c2nccc(N3CC[C@@H](Oc4ccc([C@H](C)NC(C)=O)cc4)C3)n2)cc1
1220

----------
# Measured On: human ACC2 (Homo sapiens (Human), UniProt O00763)
# Sequence (O00763 129-2458): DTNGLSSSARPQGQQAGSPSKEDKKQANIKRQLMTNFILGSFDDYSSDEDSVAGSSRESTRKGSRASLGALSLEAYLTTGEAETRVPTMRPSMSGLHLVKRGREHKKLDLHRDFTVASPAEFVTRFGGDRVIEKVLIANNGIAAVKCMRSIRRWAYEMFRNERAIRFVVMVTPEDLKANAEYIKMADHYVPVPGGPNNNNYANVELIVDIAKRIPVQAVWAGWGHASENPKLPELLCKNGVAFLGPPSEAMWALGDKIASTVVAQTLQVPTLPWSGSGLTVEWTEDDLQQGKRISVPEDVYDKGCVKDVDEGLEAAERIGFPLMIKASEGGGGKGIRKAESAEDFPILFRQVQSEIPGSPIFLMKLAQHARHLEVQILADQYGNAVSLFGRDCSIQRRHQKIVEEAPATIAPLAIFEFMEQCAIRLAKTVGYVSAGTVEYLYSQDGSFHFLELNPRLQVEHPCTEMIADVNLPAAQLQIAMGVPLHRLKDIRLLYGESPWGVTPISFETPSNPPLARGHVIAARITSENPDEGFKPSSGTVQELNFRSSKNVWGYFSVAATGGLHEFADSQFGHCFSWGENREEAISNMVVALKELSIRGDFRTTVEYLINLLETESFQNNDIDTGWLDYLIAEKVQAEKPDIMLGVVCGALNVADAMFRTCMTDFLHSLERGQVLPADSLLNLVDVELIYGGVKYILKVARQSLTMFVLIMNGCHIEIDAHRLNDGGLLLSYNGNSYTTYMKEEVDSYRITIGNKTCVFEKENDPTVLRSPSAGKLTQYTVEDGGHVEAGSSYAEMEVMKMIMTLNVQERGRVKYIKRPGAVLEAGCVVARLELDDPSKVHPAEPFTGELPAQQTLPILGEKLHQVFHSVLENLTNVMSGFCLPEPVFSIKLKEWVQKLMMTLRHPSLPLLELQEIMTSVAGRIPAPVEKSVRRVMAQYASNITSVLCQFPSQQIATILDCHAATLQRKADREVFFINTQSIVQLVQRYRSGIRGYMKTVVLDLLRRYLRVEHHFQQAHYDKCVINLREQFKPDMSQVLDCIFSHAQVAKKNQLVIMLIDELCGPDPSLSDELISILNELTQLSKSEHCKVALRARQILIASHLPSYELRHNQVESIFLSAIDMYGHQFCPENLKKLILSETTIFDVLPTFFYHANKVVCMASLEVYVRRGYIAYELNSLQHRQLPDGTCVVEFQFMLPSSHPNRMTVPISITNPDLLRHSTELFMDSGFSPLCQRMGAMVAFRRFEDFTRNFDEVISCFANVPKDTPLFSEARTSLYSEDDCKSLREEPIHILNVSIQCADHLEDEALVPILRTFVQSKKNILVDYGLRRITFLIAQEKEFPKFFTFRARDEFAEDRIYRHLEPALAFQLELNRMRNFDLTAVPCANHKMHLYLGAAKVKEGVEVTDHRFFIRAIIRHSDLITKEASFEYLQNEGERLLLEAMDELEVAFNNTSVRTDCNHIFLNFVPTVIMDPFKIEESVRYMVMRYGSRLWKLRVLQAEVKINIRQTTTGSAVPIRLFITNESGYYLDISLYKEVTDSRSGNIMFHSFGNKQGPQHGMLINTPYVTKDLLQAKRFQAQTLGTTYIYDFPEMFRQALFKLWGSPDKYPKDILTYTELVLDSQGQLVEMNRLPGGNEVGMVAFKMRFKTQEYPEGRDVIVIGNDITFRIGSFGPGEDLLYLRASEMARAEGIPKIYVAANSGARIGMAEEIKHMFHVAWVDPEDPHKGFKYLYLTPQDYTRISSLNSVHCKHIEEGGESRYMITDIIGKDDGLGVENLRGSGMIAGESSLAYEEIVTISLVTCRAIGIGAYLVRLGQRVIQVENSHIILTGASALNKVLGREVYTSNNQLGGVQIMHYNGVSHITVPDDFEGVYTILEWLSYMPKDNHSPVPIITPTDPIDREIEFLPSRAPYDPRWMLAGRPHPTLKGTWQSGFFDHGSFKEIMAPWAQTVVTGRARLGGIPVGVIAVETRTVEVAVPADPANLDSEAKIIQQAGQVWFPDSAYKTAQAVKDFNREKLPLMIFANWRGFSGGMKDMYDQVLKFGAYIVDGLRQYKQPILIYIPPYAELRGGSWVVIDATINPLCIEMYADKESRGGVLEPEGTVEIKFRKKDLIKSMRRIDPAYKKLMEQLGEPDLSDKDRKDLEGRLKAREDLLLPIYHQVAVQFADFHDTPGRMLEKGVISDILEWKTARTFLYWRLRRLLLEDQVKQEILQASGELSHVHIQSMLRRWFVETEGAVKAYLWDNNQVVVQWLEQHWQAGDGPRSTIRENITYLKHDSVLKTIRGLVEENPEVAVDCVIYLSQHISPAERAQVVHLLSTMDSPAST
# Experimental Protocol: ACC2 assay (spectrophotometric 384 well assay, NADH-linked kinetic method)
# Type: biochemical
# Condition Notes: hACC2 construct lacking 128 N-terminal amino acids; coupled lactate dehydrogenase/pyruvate kinase reaction, 340 nm, 25° C.
Exercise: state measured IC50 for each of the compounds provided.
Express your answer in nM, writing the number without its unit.

Checklist item: IC50 tested on human ACC2 (Homo sapiens (Human), UniProt O00763), entry COc1c(OCC2CC2(F)F)ncnc1N1CC[C@@H](Oc2ccc([C@H](C)NC(C)=O)cc2)C1 (stereo partly shown) [Example 7.56] , value?
75

# iterate: CC(=O)N[C@@H](C)c1ccc(O[C@@H]2CCN(c3cc(OCC(F)(F)F)ncn3)C2)cc1 [Example 7.9]
879

# iterate: CCC(=O)N[C@@H](C)c1ccc(OC2CCN(c3ccnc(N(C)CC(F)F)n3)C2)cc1 (stereo partly shown) [Example 2.16]
45

# iterate: COCC(=O)Nc1nc(C)c(C(=O)N[C@@H](C)c2ccc(OC3CCN(c4ccnc(N(C)CC(F)F)n4)C3)cc2)s1 (stereo partly shown) [Example 2.11]
115

# iterate: CC(=O)N[C@@H](C)c1ccc(O[C@@H]2CCN(c3ncnc(N4CCOCC4)c3F)C2)cc1 [Example 8.143]
429

# iterate: CC(=O)N[C@@H](C)c1ccc(O[C@@H]2CCN(c3nc(N(C)CC4CC4)ncc3Cl)C2)cc1 [Example 8.126]
58

# iterate: CCCN(C)c1ncc(Cl)c(N2CC[C@@H](Oc3ccc([C@H](C)NC(C)=O)cc3)C2)n1 [Example 8.47]
65

----------
# Measured On: human ACC2 (Homo sapiens (Human), UniProt O00763)
# Experimental Protocol: ACC2 assay (spectrophotometric 384 well assay, NADH-linked kinetic method)
# Format: biochemical
# Condition Notes: hACC2 construct lacking 128 N-terminal amino acids; coupled lactate dehydrogenase/pyruvate kinase reaction, 340 nm, 25° C.
Exercise: state measured pIC50 for each of the molecules provided.
# pIC50 = -log10(concentration in molar units)

# pIC50 lookup, item C[C@H](NC(=O)N(C)C)c1ccc(O[C@@H]2CCN(c3ncnc(OCC(C)(F)F)c3F)C2)cc1
6.81

# iterate: CC(=O)N[C@@H](C)c1ccc(O[C@@H]2CCN(c3ncnc(OCC(C)C)c3F)C2)cc1
7.16

# iterate: CC(=O)N[C@@H](C)c1ccc(O[C@@H]2CCN(c3ncnc(N4CC[C@](C)(O)C4)c3F)C2)cc1
6.95

# iterate: COC(=O)N[C@@H](C)c1ccc(O[C@@H]2CCN(c3ccnc(N(C)CC(F)F)n3)C2)cc1
7.19

# iterate: CC(=O)N[C@@H](C)c1ccc(O[C@@H]2CCN(c3ncnc(OCC(C)(C)O)c3F)C2)cc1
6.84
